Reference source: patent US6706663B2

This section presents compounds with their documented CHEAL preemergence herbicidal rating values.
System: CHEAL (Chenopodium album)
Assay: Preemergence herbicidal evaluation
Type: in vivo, L.
Details: Rate 0.0620 kg/ha; preemergence; rated 4-5 weeks after treatment

Compound	CHEAL preemergence herbicidal rating
Cn1c(C(F)(F)F)cc(=O)n(-c2ccc3snc(C4OCCCS4)c3c2)c1=O (stereo not shown) [Compound 34]	9.0
Cn1c(C(F)(F)F)cc(=O)n(-c2ccc3snc(-c4ccsc4)c3c2)c1=O [Compound 1]	9.0
CC(=O)N1CCSC1c1nsc2ccc(-n3c(=O)cc(C(F)(F)F)n(C)c3=O)cc12 (stereo not shown) [Compound 29]	9.0
COC(=O)COc1ccsc1-c1nsc2ccc(-n3c(=O)cc(C(F)(F)F)n(C)c3=O)cc12 [Compound 22]	0.0

###

ECHCG preemergence herbicidal rating reference
Tested on: ECHCG (Echinochloa crus-galli)
Assay: Preemergence herbicidal evaluation
Format: in vivo, (L.) Beau
Details: Rate 0.2500 kg/ha; preemergence; rated 4-5 weeks after treatment

Compound	ECHCG preemergence herbicidal rating
COC(=O)C(C)Oc1ccsc1-c1nsc2ccc(-n3c(=O)cc(C(F)(F)F)n(C)c3=O)cc12 (stereo not drawn) [Compound 23]	1.0
Cn1c(C(F)(F)F)cc(=O)n(-c2ccc3snc(-c4cccs4)c3c2)c1=O [Compound 3]	9.0
Cc1ccn(-c2nsc3ccc(-n4c(=O)cc(C(F)(F)F)n(C)c4=O)cc23)n1 [Compound 38]	9.0

###

Tested on: CHEAL (Chenopodium album)
Experiment: Preemergence herbicidal evaluation
Assay type: in vivo, L.
Conditions: Rate 0.0620 kg/ha; preemergence; rated 4-5 weeks after treatment

Compound	CHEAL preemergence herbicidal rating
Cn1c(C(F)(F)F)cc(=O)n(-c2ccc3snc(-c4ccccn4)c3c2)c1=O	9.0
Cc1cccnc1-c1nsc2ccc(-n3c(=O)cc(C(F)(F)F)n(C)c3=O)cc12	9.0
Cc1ccc(-c2nsc3ccc(-n4c(=O)cc(C(F)(F)F)n(C)c4=O)cc23)s1	9.0
CCOC(=O)C1CS[C@H](c2nsc3ccc(-n4c(=O)cc(C(F)(F)F)n(C)c4=O)cc23)N1 (stereo partly drawn)	9.0
Cn1c(C(F)(F)F)cc(=O)n(-c2ccc3snc(C(SCCO)SCCO)c3c2)c1=O	4.0
Cn1ccnc1-c1nsc2ccc(-n3c(=O)cc(C(F)(F)F)n(C)c3=O)cc12	9.0

###

System: ECHCG (Echinochloa crus-galli)
Assay: Preemergence herbicidal evaluation
Type: in vivo, (L.) Beau
Details: Rate 0.2500 kg/ha; rated 4-5 weeks after treatment

Compound	Preemergence herbicidal rating ECHCG
Cn1c(C(F)(F)F)cc(=O)n(-c2ccc3snc(C4OCCCS4)c3c2)c1=O (stereo not drawn)	9.0
COCC1COC(c2nsc3ccc(-n4c(=O)cc(C(F)(F)F)n(C)c4=O)cc23)O1 (stereo not drawn)	9.0
Cn1c(C(F)(F)F)cc(=O)n(-c2ccc3snc(-c4sccc4Cl)c3c2)c1=O	9.0
Cc1cc(C)nc(-c2nsc3ccc(-n4c(=O)cc(C(F)(F)F)n(C)c4=O)cc23)n1	8.0
Cn1c(C(F)(F)F)cc(=O)n(-c2ccc3snc(C4OCC(CBr)O4)c3c2)c1=O (stereo not drawn)	9.0
Cn1c(C(F)(F)F)cc(=O)n(-c2ccc3snc(C4=NCCO4)c3c2)c1=O	6.0

###

Tested on: IPOHE (Ipomoea hederacea)
Assay: Preemergence herbicidal evaluation
Assay type: in vivo, (L.) Jacq.
Conditions: Rate 0.1250 kg/ha; preemergence; rated 4-5 weeks after treatment
IPOHE preemergence herbicidal rating reference

Molecule	Target System	IPOHE preemergence herbicidal rating
Cc1ccn(-c2nsc3ccc(-n4c(=O)cc(C(F)(F)F)n(C)c4=O)cc23)n1	IPOHE (Ipomoea hederacea)	0.0
Cn1c(C(F)(F)F)cc(=O)n(-c2ccc3snc(-c4cccs4)c3c2)c1=O	IPOHE (Ipomoea hederacea)	9.0
Cc1cscc1-c1nsc2ccc(-n3c(=O)cc(C(F)(F)F)n(C)c3=O)cc12	IPOHE (Ipomoea hederacea)	4.0
Cn1c(C(F)(F)F)cc(=O)n(-c2ccc3snc(-c4ccccn4)c3c2)c1=O	IPOHE (Ipomoea hederacea)	8.3
Cc1csc(-c2nsc3ccc(-n4c(=O)cc(C(F)(F)F)n(C)c4=O)cc23)n1	IPOHE (Ipomoea hederacea)	0.0
Cn1c(C(F)(F)F)cc(=O)n(-c2ccc3snc(C4SCCN4C(=O)c4ccccc4)c3c2)c1=O (stereo not shown)	IPOHE (Ipomoea hederacea)	1.5
Cn1c(C(F)(F)F)cc(=O)n(-c2ccc3snc(C4OCCCO4)c3c2)c1=O	IPOHE (Ipomoea hederacea)	9.0

###

Tested on: ORYSAT (Rice, Tebonnet)
Assay: Preemergence herbicidal evaluation
Assay type: in vivo, Oryza sativa, (L.) Tebonnet
Conditions: Rate 0.2500 kg/ha; rated 4-5 weeks after treatment

Compound	Target System	Preemergence herbicidal rating ORYSAT
CC1COC(c2nsc3ccc(-n4c(=O)cc(C(F)(F)F)n(C)c4=O)cc23)O1 (stereo not drawn)	ORYSAT (Rice, Tebonnet)	9.0
Cn1c(C(F)(F)F)cc(=O)n(-c2ccc3snc(-c4sccc4CBr)c3c2)c1=O	ORYSAT (Rice, Tebonnet)	6.0
Cc1cccnc1-c1nsc2cc(F)c(N3C(=O)C4=C(CCCC4)C3=O)cc12	ORYSAT (Rice, Tebonnet)	4.0
Cc1nn(-c2nsc3ccc(-n4c(=O)cc(C(F)(F)F)n(C)c4=O)cc23)c(C)c1C	ORYSAT (Rice, Tebonnet)	0.0
Cn1c(C(F)(F)F)cc(=O)n(-c2ccc3snc(C4OCC(CCl)O4)c3c2)c1=O (stereo not drawn)	ORYSAT (Rice, Tebonnet)	9.0
C=CC1COC(c2nsc3ccc(-n4c(=O)cc(C(F)(F)F)n(C)c4=O)cc23)O1 (stereo not drawn)	ORYSAT (Rice, Tebonnet)	9.0
Cn1c(C(F)(F)F)cc(=O)n(-c2ccc3snc(-c4nccs4)c3c2)c1=O	ORYSAT (Rice, Tebonnet)	5.0
CC(C)C1COC(c2nsc3ccc(-n4c(=O)cc(C(F)(F)F)n(C)c4=O)cc23)=N1 (stereo not drawn)	ORYSAT (Rice, Tebonnet)	5.0
Cc1cnn(-c2nsc3ccc(-n4c(=O)cc(C(F)(F)F)n(C)c4=O)cc23)c1	ORYSAT (Rice, Tebonnet)	2.0

###

Reported Preemergence herbicidal rating GALAP by item:
Tested on: GALAP (Galium aparine)
Assay: Preemergence herbicidal evaluation
Assay type: in vivo
Conditions: Rate 0.1250 kg/ha; rated 4-5 weeks after treatment

Compound	Preemergence herbicidal rating GALAP
Cn1c(C(F)(F)F)cc(=O)n(-c2cc3c(C4OCCCO4)nsc3cc2F)c1=O [Compound 62]	9.0
C[C@@H]1C[C@H](C)OC(c2nsc3cc(F)c(-n4c(=O)cc(C(F)(F)F)n(C)c4=O)cc23)O1 (some centres unmarked) [Compound 67]	9.0
Cn1c(C(F)(F)F)cc(=O)n(-c2ccc3snc(C4OCCO4)c3c2)c1=O [Compound 45]	9.0
Cc1ccc(-c2nsc3ccc(-n4c(=O)cc(C(F)(F)F)n(C)c4=O)cc23)nc1 [Compound 42]	0.0
Cn1c(C(F)(F)F)cc(=O)n(-c2ccc3snc(C4OCC5(CO4)CO5)c3c2)c1=O (centres unmarked) [Compound 70]	9.0
Cn1c(C(F)(F)F)cc(=O)n(-c2ccc3snc(C4=NCCO4)c3c2)c1=O [Compound 75]	7.0
CC1=CC(C)(C)OC(c2nsc3ccc(-n4c(=O)cc(C(F)(F)F)n(C)c4=O)cc23)C1 (centres unmarked) [Compound 65]	7.0
Cc1cc(C)nc(-c2nsc3ccc(-n4c(=O)cc(C(F)(F)F)n(C)c4=O)cc23)n1 [Compound 40]	0.0

###

System: CYPSE (Cyperus serotinus)
Assay: Flooded paddy, preemergence weed control
Assay type: in vivo, Rottb.
Conditions: rate 0.1250 kg/ha, rated 3-4 weeks after treatment, 0-9 rating scale
Measured herbicidal rating, CYPSE, listed per entry.

Compound	herbicidal rating, CYPSE
Cn1c(C(F)(F)F)cc(=O)n(-c2ccc3snc(C4SCCS4)c3c2)c1=O [Compound 24]	2.0
C[C@@H]1C[C@H](C)OC(c2nsc3ccc(-n4c(=O)cc(C(F)(F)F)n(C)c4=O)cc23)O1 (some centres unmarked) [Compound 51]	9.0
Cc1nnc(-c2nsc3ccc(-n4c(=O)cc(C(F)(F)F)n(C)c4=O)cc23)o1 [Compound 16]	6.0
Cn1ccnc1-c1nsc2ccc(-n3c(=O)cc(C(F)(F)F)n(C)c3=O)cc12 [Compound 5]	0.0
Cn1c(C(F)(F)F)cc(=O)n(-c2ccc3snc(-c4cccnc4)c3c2)c1=O [Compound 11]	0.0
Cn1c(C(F)(F)F)cc(=O)n(-c2cc3c(C4OCCO4)nsc3cc2F)c1=O [Compound 61]	9.0
C[C@@H]1O[C@@H]1c1nsc2ccc(-n3c(=O)cc(C(F)(F)F)n(C)c3=O)cc12 [Compound 13]	6.5
Cn1c(C(F)(F)F)cc(=O)n(-c2ccc3snc(C4OCCCS4)c3c2)c1=O (centres unmarked) [Compound 34]	9.0

###

Listed here: items and their measured herbicidal rating, ORYSAT (rice tolerance).
Tested on: ORYSAT (Rice, Tebonnet)
Experiment: Flooded paddy, post-transplant rice tolerance
Assay type: in vivo, Oryza sativa, (L.) Tebonnet
Conditions: flooded paddy, post-transplant rice; rate 0.0320 kg/ha; rated 3-4 weeks after treatment; 0-9 rating scale
Observable: herbicidal rating, ORYSAT (rice tolerance)

Compound	Target System	Measured Value
Cc1sccc1-c1nsc2ccc(-n3c(=O)cc(C(F)(F)F)n(C)c3=O)cc12	ORYSAT (Rice, Tebonnet)	2.5
C=C1COC(c2nsc3ccc(-n4c(=O)cc(C(F)(F)F)n(C)c4=O)cc23)OC1	ORYSAT (Rice, Tebonnet)	4.0
Cc1ccc(-c2nsc3ccc(-n4c(=O)cc(C(F)(F)F)n(C)c4=O)cc23)s1	ORYSAT (Rice, Tebonnet)	2.0
Cn1c(C(F)(F)F)cc(=O)n(-c2ccc3snc(C4SCCS4)c3c2)c1=O	ORYSAT (Rice, Tebonnet)	0.0
Cc1cccnc1-c1nsc2ccc(-n3c(=O)cc(C(F)(F)F)n(C)c3=O)cc12	ORYSAT (Rice, Tebonnet)	6.5
Cc1cc(C)c(-c2nsc3ccc(-n4c(=O)cc(C(F)(F)F)n(C)c4=O)cc23)s1	ORYSAT (Rice, Tebonnet)	2.0
Cn1c(C(F)(F)F)cc(=O)n(-c2cc3c(C4OCCO4)nsc3cc2F)c1=O	ORYSAT (Rice, Tebonnet)	9.0
Cn1ccnc1-c1nsc2ccc(-n3c(=O)cc(C(F)(F)F)n(C)c3=O)cc12	ORYSAT (Rice, Tebonnet)	2.0
CN(C(=O)c1nsc2ccc(-n3c(=O)cc(C(F)(F)F)n(C)c3=O)cc12)c1ccc(Cl)cc1	ORYSAT (Rice, Tebonnet)	1.5
Cn1c(C(F)(F)F)cc(=O)n(-c2ccc3snc(C4=NCCO4)c3c2)c1=O	ORYSAT (Rice, Tebonnet)	4.5
CC(C)C1COC(c2nsc3ccc(-n4c(=O)cc(C(F)(F)F)n(C)c4=O)cc23)=N1 (stereo not shown)	ORYSAT (Rice, Tebonnet)	4.0
Cc1cccnc1-c1nsc2cc(F)c(N3C(=O)C4=C(CCCC4)C3=O)cc12	ORYSAT (Rice, Tebonnet)	2.0
C[C@@H]1OC(c2nsc3ccc(-n4c(=O)cc(C(F)(F)F)n(C)c4=O)cc23)O[C@@H]1C (stereo partly shown)	ORYSAT (Rice, Tebonnet)	7.5
Cn1c(C(F)(F)F)cc(=O)n(-c2ccc3snc(C4OCC5(CO4)CO5)c3c2)c1=O (stereo not shown)	ORYSAT (Rice, Tebonnet)	0.0
Cc1cc(C)nc(-c2nsc3ccc(-n4c(=O)cc(C(F)(F)F)n(C)c4=O)cc23)n1	ORYSAT (Rice, Tebonnet)	5.0
CCOC(=O)C1CS[C@H](c2nsc3ccc(-n4c(=O)cc(C(F)(F)F)n(C)c4=O)cc23)N1 (stereo partly shown)	ORYSAT (Rice, Tebonnet)	1.0
